Field: MIC. Provide a value for each of the compounds that follow.
- Test system: Mycobacterium tuberculosis
- procedureSummary: Antimycobacterial activity against Mycobacterium tuberculosis H37Rv in 7H12 medium by microplate alamar blue assay
- Format: functional

Prompt: Recorded MIC for C[C@H]1COC2(CCN(S(=O)(=O)c3cc(-c4cccc[n+]4[O-])cc(C(F)(F)F)c3)CC2)O1 , please?
Completion: > 64 µM

Prompt: Recorded MIC for C[C@H]1COC2(CCC(C(=O)Nc3cccc(C(F)(F)F)c3)CC2)O1 (stereo partly drawn) , please?
Completion: > 50 µM

Prompt: Recorded MIC for C[C@H]1COC2(CCN(S(=O)(=O)c3cc([N+](=O)[O-])cc([N+](=O)[O-])c3)CC2)O1 , please?
Completion: 1.53 µM
